test system: ACHN renal; test: NCI-60 one-dose screen, 48 h (100 = growth as untreated, 0 = no growth, -100 = all killed); conditions: 10 µM unless noted
This is part of a sample that, as a whole, favours compounds with a hit. Of some 83,000 tested, about 20% had one in any assay.
Hi there, I'd appreciate the recorded growth for every entry that follows.
The figure you give is taken to be in %; do not add the unit.

For reference, reported growth for O=C1CCc2c(sc3[nH]c(=S)n(-c4cc(C(F)(F)F)cc(C(F)(F)F)c4)c(=O)c23)C1 stands at 3.08

The measured growth associated with COc1cccc(-c2nn(-c3ccccc3)cc2-c2ccnc(-c3cccnc3)c2)c1 reads 92.6

So, Clc1ccc2c(NCCCn3cnc4c(N5CCCC5)nc(Cl)nc43)ccnc2c1 ? Its growth was 91.8

Entry Cc1cc([N+](=O)[O-])ccc1NC(=O)c1ccc2c(c1)nc(-c1ccccc1)n2C1CCCCC1 ; growth = 89.6

growth reading for O=C(CSc1nnc(-c2ccc(Cl)c(Cl)c2)n1-c1ccccc1)Nc1ccc(C(=O)/C=C/c2ccc(Cl)cc2)cc1 : 98

Reported growth ( CCN1CCN(c2nc(NNC(=O)c3ccc(OC)cc3)nc(N3CCN(C(c4ccccc4)c4ccccc4)CC3)n2)CC1 ) = 34

Recorded growth (molecule CN1CCN(Cc2ccc(NC(=O)c3cc(C#Cc4cnc(N)c5ncccc45)n(C)n3)cc2C(F)(F)F)CC1 ): 47.2

# growth (molecule: CN1C(=O)N(C)C2C1NN=c1s/c(=C\c3ccc(F)cc3)c(=O)n12 (centres undefined) ) is 39.2

growth reading for CCOC(=O)CSc1nc2sc3c(c2c(=O)n1-c1ccccc1)CCCCC3 : 102

* * *

system: SF-295 CNS; assay: NCI-60 one-dose screen, 48 h (100 = growth as untreated, 0 = no growth, -100 = all killed); details: 10 µM unless noted
The panel holds about 83,000 compounds, 20% with a hit somewhere; the sample as a whole holds those more often.
measurement-label: growth (%)
The reply should be a number in %, with the unit left off.

The compound O=C(Nc1ccccc1C(F)(F)F)C1=NCCCCN1 showed growth equal to 93.6

Record Cc1ccc(C(F)(F)F)cc1N1CCN(C(=O)[C@H]2C[C@H]2c2ccc(C(F)(F)F)nc2)CC1 . Reported growth: 94.7

Entry Cc1cc(C)n(C(=O)CSc2nc3sc4c(c3c(=O)n2-c2ccccc2)CCCCC4)n1 — recorded growth = 101

Item: COC(=O)[C@H](C)NC(=O)c1ccc(NC(=O)c2[nH]c(C)c(Cl)c2Cl)c(OCCN)c1 | growth: 102

The reported value for COC1CC(O)C2=C(CC3C(/C(C)=C\CC=C(C)C)CCC3(C)O2)C1=O (stereo not given) in terms of growth is 107

* * *

Test system: HCT-116 colon
Experiment: NCI-60 one-dose screen, 48 h (100 = growth as untreated, 0 = no growth, -100 = all killed)
Details: 10 µM unless noted
Method: Growth inhibition of the HCT-116 human tumor cell line is measured as a screen for anti-cancer activity. Cells are grown in 96 well plates and exposed to the test compound for 48 hours. Compounds are tested at a single concentration, which is 10^-5 M for most compounds. The reported endpoint is percent growth (GI% or GIPRCNT), where numbers from 0 - 100% represent growth inhibition, and numbers from -100% - 0 represent cell death. For example, a value of 40 represents 60% growth inhibition. […]
About 83,000 compounds went through this panel and 20% of them were active in at least one assay; those are over-represented in the sample as a whole.
Kindly state growth for each of the entries shown.
Report only the number, with the unit % understood.

Documented growth of COc1ccc(-c2cc(-c3ccc(Nc4nc(Nc5ccc(Cl)cc5)nc(Nc5ccc(Cl)cc5)n4)cc3)no2)cc1 : 53.3

Measured growth, Cc1ccc(OCCOCCOCCOCCOc2ccc(C)n(O)c2=S)c(=S)n1O : 14.3

According to the records, this compound O=C(Cn1cc(CSc2nc3ccccc3o2)nn1)Nc1ccc([N+](=O)[O-])cc1 displays growth of 97.6

Record CCOC(=O)C#Cc1c(CC(=O)OCC)nnn1[C@H]1O[C@@H](CO)[C@@H]2OC(C)(C)O[C@@H]21 . Reported growth: 65.2

Notebook: CC(=O)c1ccc(Nc2nccc(-c3ccc(Cl)cc3)n2)cc1 , growth read as 62.9

* * *

tested on: LOX IMVI melanoma; test: NCI-60 one-dose screen, 48 h (100 = growth as untreated, 0 = no growth, -100 = all killed); conditions: 10 µM unless noted
About 83,000 compounds went through this panel and 20% of them were active in at least one assay; those are over-represented in the sample as a whole.
measurement-label: growth (%)
Quick reminder: number only, in %, skip the unit.

Record N=C(N)c1ccc(-c2ccc(-c3ccc(Cl)cc3Cl)s2)nc1 , field growth: -67.9

Consider COc1ccc(CNc2c3ccccc3nc3ccccc23)cc1OC . Its measured growth is -3.83

Sure, the documented growth for CCOC(=O)CSc1nc2sc3c(c2c(=O)n1-c1ccccc1)CCCCC3 is 101

The recorded growth for O=C(/C=C/c1cccc([N+](=O)[O-])c1)c1ccc(Nc2nc(Nc3ccc(F)cc3)nc(Nc3ccc(Cl)cc3)n2)cc1 is 84.2

Entry CC(C)(C)n1cc(-c2ccnc(NCCNS(=O)(=O)c3ccc(C(F)(F)F)cc3)c2)c(-c2ccccc2)n1 ; growth = 93.1

The compound listed as Cc1c2cnccc2c(C)c2c1c1cc(C(=O)O)ccc1n2C has a reported growth of -27.1

The compound identified as CCCCCCCCCCCCCC[n+]1ccc2c(C)c3c(c(C)c2c1)c1cc(O)ccc1n3CC registered its growth at -70

So, CC(C)(C)n1cc(-c2ccnc(NCCNS(=O)(=O)c3ccc(Br)cc3)c2)c(-c2cccc(O)c2)n1 ? Its growth was 12.7

Quick note, growth for CN1CCN(Cc2ccc(NC(=O)c3cncc(C#Cc4cnc(N)c5ncccc45)c3)cc2Cl)CC1 landed at 86.5

* * *

system: HOP-62 NSCLC; assay: NCI-60 one-dose screen, 48 h (100 = growth as untreated, 0 = no growth, -100 = all killed); conditions: 10 µM unless noted
Compounds without any hit were thinned out: in the full panel of roughly 83,000, 20% have a hit.
measurement-label: growth (%)
Write down the numeric answer in % and omit the unit.

// growth (HOP-62 NSCLC) for O=C(Oc1ccccc1)c1cc(O)c(O)c(O)c1 = 54.9

The reported HOP-62 NSCLC growth of O=C1CC2C=CCN2C=C1NC(=O)c1ccccc1 (configuration not stated) is 114

Considering CCN1C(=O)N(CC)C2C1NN=c1s/c(=C\c3ccc([N+](=O)[O-])cc3)c(=O)n12 (configuration not stated) , its growth with HOP-62 NSCLC was recorded as 42.6

Bench note, HOP-62 NSCLC: C#CC#CC#CC#CC#CC#CC#CC#CC[C@@H]1OC[C@H](COC(=O)O[C@@H](C(=O)O[C@H]2C[C@@]3(O)[C@@H](OC(=O)c4ccccc4)[C@@H]4[C@]5(OC(C)=O)CO[C@@H]5C[C@H](O)[C@@]4(C)C(=O)[C@H](OC(C)=O)C(=C2C)C3(C)C)[C@@H](NC(=O)c2ccccc2)c2ccccc2)O1 , growth reads 55

The measured growth that COc1cc(C)cc(-c2c(-c3cc(N4CC(O)C4)nc(-c4cccnc4)n3)cnn2C)c1 showed for HOP-62 NSCLC is 111

Here O=C(/C=C/c1cccc([N+](=O)[O-])c1)c1ccc(Nc2nc(Nc3ccc(F)cc3)nc(Nc3ccc(Cl)cc3)n2)cc1 was tested on HOP-62 NSCLC, and its growth came to 151

The compound CCOc1ccc(-c2cc(C3(S(=O)(=O)c4ccc(C)cc4)CC=CC3)on2)cc1 on HOP-62 NSCLC: growth was 85.9

* * *

system: COLO 205 colon; assay: NCI-60 one-dose screen, 48 h; conditions: 10 µM unless noted
About 83,000 compounds went through this panel and 20% of them were active in at least one assay; those are over-represented in the sample as a whole. Active and inactive are the calls of the source. How the source made its calls: active means growth percent below 10; inactive means the rest.
Response enum: TRUE for active, FALSE for inactive

## Input Check the results log: what was the call for O=C1CCC(C(=O)N/N=C/c2ccc([N+](=O)[O-])cc2)N1 (stereo unspecified) ?
## Output FALSE

## Input How was COc1ccc(N/N=C/c2ccc3c(c2)Sc2ccccc2N3C)cc1 classified in this test?
## Output FALSE

## Input Could you check what this test reported for O=C(COc1ccc(/C=C2\Oc3ccccc3C2=O)cc1)Nc1nccs1 ?
## Output FALSE

## Input Please state the recorded outcome for this molecule: O=S(=O)(Nc1ccc(Br)cc1)c1ccc(-c2cnc(C3CC3)o2)cc1
## Output FALSE

## Input Recorded test call requested for O=C(O)COc1ccc(F)cc1
## Output FALSE

## Input State the result this test recorded for COc1cccc(C2C3=C(COC3=O)N(CCO)c3cc4c(cc32)OCCO4)c1 (stereo unspecified) .
## Output TRUE

## Input Assay result, entry C=CCNc1ccc2c3c(cccc13)C(=O)N(CC=C)C2=O — outcome?
## Output FALSE

## Input Please let me know the test result on file for O=C(Nc1ccc2[nH]ncc2c1)c1csc(Nc2ccccc2)n1 .
## Output FALSE

## Input Test call for this molecule, please: Nc1ccc(Cl)c2c(=O)c3ccccc3[nH]c12
## Output FALSE

## Input Please indicate how the test categorized Nc1ncnc2c1N=C(c1ccc([N+](=O)[O-])cc1)CC(c1ccc3c(c1)OCO3)N2 (stereo unspecified) .
## Output FALSE

## Input Each molecule tested received a call. Report the one for NS(=O)(=O)Oc1cccc(-c2nc3sccn3c2-c2ccccc2)c1 .
## Output FALSE
